Where these numbers come from: the supplement of paper PMC4862054

Overview of reported normalised response across a group of compounds:
System: HDQ-P1
assay: normalised response (% of control), CellTiter-Glo; higher = more viable cells (100 = DMSO, 0 = benzethonium chloride kill control)
reported_conditions: incubation time: 72 h
experimental_endpoint: normalised response (%)

compound: C[C@]12CC[C@@H]3c4ccc(O)cc4C[C@@H](CCCCCCCCC[S+]([O-])CCCC(F)(F)C(F)(F)F)[C@H]3[C@@H]1CC[C@@H]2O (stereo partly specified) [Fulvestrant] (0.1 nM)
unit_tag: %
readout_value: 101
//
compound: O=C(CCCCCCC(=O)Nc1ccc([C@H]2O[C@@H](CSc3nc(-c4ccccc4)c(-c4ccccc4)o3)C[C@@H](c3ccc(CO)cc3)O2)cc1)NO [Tubacin] (10 nM)
unit_tag: %
readout_value: 93
//
compound: O=C1CCC(N2C(=O)c3ccccc3C2=O)C(=O)N1 (stereo unspecified) [Thalidomide] (1 nM)
unit_tag: %
readout_value: 101
//
compound: O=C1CCC(N2C(=O)c3ccccc3C2=O)C(=O)N1 (stereo unspecified) [Thalidomide] (10 nM)
unit_tag: %
readout_value: 96.1
//
compound: CCC1=C[C@@H]2CN(C1)Cc1c([nH]c3ccccc13)[C@@](C(=O)OC)(c1cc3c(cc1OC)N(C)[C@H]1[C@@](O)(C(=O)OC)[C@H](OC(C)=O)[C@]4(CC)C=CCN5CC[C@]31[C@@H]54)C2 [Vinorelbine] (1 nM)
unit_tag: %
readout_value: 98.1
//
compound: NC(=O)Nc1cc(-c2cccc(F)c2)sc1C(=O)N[C@H]1CCCNC1 [AZD7762] (1 nM)
unit_tag: %
readout_value: 91.2
//
compound: N#CCNC(=O)c1ccc(-c2ccnc(Nc3ccc(N4CCOCC4)cc3)n2)cc1 [Momelotinib] (1 nM)
unit_tag: %
readout_value: 100
//
compound: CC(=O)Nc1ccc(C(=O)Nc2ccccc2N)cc1 [Tacedinaline] (1 nM)
unit_tag: %
readout_value: 98.9
//
compound: Oc1nc(-c2ccc(C(F)(F)F)cc2)nc2c1CSCC2 [XAV-939] (1000 nM)
unit_tag: %
readout_value: 101
//
compound: Cc1ccc(C(=O)N(CCCN)[C@@H](c2oc3cc(Cl)ccc3c(=O)c2Cc2ccccc2)C(C)C)cc1 (0.1 nM)
unit_tag: %
readout_value: 100
//
compound: C[C@]12CC[C@@H]3c4ccc(O)cc4C[C@@H](CCCCCCCCC[S+]([O-])CCCC(F)(F)C(F)(F)F)[C@H]3[C@@H]1CC[C@@H]2O (stereo partly specified) [Fulvestrant] (1 nM)
unit_tag: %
readout_value: 99.3
//
compound: COc1cc2ncnc(Nc3ccc(F)c(Cl)c3)c2cc1NC(=O)/C=C/CN1CCCCC1 [Dacomitinib] (1 nM)
unit_tag: %
readout_value: 90.7
//
compound: COc1cc2nccc(Oc3ccc(NC(=O)C4(C(=O)Nc5ccc(F)cc5)CC4)cc3)c2cc1OC [Cabozantinib] (0.1 nM)
unit_tag: %
readout_value: 95.2
//
compound: C=C(c1ccc(C(=O)O)cc1)c1cc2c(cc1C)C(C)(C)CCC2(C)C [Bexarotene] (1 nM)
unit_tag: %
readout_value: 102
//
compound: CNCc1ccc(-c2[nH]c3cc(F)cc4c3c2CCNC4=O)cc1 [Rucaparib] (1 nM)
unit_tag: %
readout_value: 97.2
//
compound: CS(=O)(=O)c1ccc(C2=C(c3ccccc3)C(=O)OC2)cc1 [Rofecoxib] (1000 nM)
unit_tag: %
readout_value: 100
//
compound: Oc1nc(-c2ccc(C(F)(F)F)cc2)nc2c1CSCC2 [XAV-939] (10 nM)
unit_tag: %
readout_value: 97.8
//
compound: O=C(O)c1ccc(-c2c[nH]c3ncc(-c4ccccc4)cc23)cc1C1CCCC1 (1 nM)
unit_tag: %
readout_value: 93.7
//
compound: C[C@@H](Oc1cc(-c2cnn(C3CCNCC3)c2)cnc1N)c1c(Cl)ccc(F)c1Cl [Crizotinib] (1 nM)
unit_tag: %
readout_value: 96.4
//
compound: N[C@@H](CSC(c1ccccc1)(c1ccccc1)c1ccccc1)C(=O)O [S-trityl-L-cysteine] (4 nM)
unit_tag: %
readout_value: 103
//
compound: CCCCCCCCCCCCCCCCCCOP(=O)([O-])OC1CC[N+](C)(C)CC1 [Perifosine] (250 nM)
unit_tag: %
readout_value: 105
